All figures here come from patent US10039753B2.

- TARGET_OF_ASSAY: GST-tagged truncated LRRK2 (Homo sapiens)
- Construct: GST-tagged truncated LRRK2 from Invitrogen (Cat # PV4874); GST; purchased Invitrogen PV4874
- ASSAY_DETAILS: LRRK2 Assay, Format 2 (Lantha Screen), WT
- Format: biochemical
- EXPERIMENTAL_CONTEXT: 100 nM LRRKtide, 1000 mM ATP (so in the source), 30 minutes at room temperature
OUTCOME_MEASURE: pIC50
Please keep in mind that pIC50 is minus log10 of the molar concentration; only the number is needed.

# MOLECULE, pIC50
measured = [
    ("Cc1cc(Cc2nc3cnc4ccc(C#N)cc4c3n2C2CCC(F)C2)on1 (single isomer, unassigned; ent-2) [enantiomer of Example 118]", 7.65),
]

Entry under review: Cc1nc(Cc2nc3cnc4ccc(Cl)cc4c3n2C2C[C@@H](C)[C@@H](F)C2)no1 (mixture of isomers) [diastereomer of Example 136] . Reported pIC50?
7.20

How about COCc1cn(Cc2nc3cnc4ccc(C#N)cc4c3n2C2CCC(F)C2)nn1 (single isomer, unassigned; ent-2) [enantiomer of Example 132] ?
7.57

====

- TARGET_OF_ASSAY: mutant G2019S LRRK2 (Homo sapiens, UniProt Q5S007, G2019S)
- Sequence (Q5S007 970-2527 G2019S limits assumed): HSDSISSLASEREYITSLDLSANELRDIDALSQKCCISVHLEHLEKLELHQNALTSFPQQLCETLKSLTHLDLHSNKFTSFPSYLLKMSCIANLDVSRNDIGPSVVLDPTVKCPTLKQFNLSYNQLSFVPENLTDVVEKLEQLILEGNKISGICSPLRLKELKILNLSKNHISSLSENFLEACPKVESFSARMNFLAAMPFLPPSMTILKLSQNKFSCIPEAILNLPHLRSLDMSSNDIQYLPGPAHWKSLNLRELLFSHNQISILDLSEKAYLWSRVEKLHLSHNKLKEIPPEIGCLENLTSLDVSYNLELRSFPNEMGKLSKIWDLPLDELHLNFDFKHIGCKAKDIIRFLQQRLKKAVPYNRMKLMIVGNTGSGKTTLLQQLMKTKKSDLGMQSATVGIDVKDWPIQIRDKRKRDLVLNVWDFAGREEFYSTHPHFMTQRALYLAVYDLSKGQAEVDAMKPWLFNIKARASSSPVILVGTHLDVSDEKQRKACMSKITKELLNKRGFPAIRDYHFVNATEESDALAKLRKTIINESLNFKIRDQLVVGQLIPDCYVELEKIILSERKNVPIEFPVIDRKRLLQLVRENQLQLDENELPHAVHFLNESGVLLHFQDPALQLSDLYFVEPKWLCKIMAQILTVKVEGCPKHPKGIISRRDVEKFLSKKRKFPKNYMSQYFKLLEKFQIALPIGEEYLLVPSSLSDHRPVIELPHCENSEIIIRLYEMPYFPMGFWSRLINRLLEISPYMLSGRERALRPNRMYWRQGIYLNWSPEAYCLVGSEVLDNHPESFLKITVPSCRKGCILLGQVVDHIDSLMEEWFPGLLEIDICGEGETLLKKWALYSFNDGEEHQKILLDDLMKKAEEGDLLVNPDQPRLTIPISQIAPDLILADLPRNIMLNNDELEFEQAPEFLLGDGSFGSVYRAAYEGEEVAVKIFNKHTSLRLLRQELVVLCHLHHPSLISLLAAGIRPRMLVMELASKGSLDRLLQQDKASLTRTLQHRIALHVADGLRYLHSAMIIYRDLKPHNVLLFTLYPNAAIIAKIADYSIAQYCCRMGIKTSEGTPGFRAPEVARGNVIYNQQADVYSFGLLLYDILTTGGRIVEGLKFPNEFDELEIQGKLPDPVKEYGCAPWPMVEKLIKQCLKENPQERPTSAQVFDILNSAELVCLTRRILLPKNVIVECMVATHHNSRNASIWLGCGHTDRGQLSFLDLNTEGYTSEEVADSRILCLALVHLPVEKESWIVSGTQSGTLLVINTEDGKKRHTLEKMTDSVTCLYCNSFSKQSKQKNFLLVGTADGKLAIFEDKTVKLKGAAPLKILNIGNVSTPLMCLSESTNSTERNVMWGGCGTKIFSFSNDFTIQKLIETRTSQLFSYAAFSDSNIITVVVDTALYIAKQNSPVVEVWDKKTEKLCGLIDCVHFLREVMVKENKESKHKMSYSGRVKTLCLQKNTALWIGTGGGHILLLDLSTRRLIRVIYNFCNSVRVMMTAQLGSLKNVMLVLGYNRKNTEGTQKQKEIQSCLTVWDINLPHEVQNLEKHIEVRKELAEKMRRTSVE
- ASSAY_DETAILS: LRRK2 Assay, Format 2 (Lantha Screen), G2019S mutant
- Assay type: biochemical
- Design: purchased Invitrogen PV4881
- EXPERIMENTAL_CONTEXT: geometric mean of 2-4 determinations unless otherwise indicated (a: >=5; b: single determination); read-out: LRRK2, Format 2 G2019S IC50
Counter-ions that a name gives are not always drawn.
// reported pIC50 for each item listed
Please keep in mind that pIC50 is minus log10 of the molar concentration; only the number is needed.

Please review the following examples before continuing.
# COMPOUND, pIC50
data = [
    ("Cc1cc(Cc2nc3cnc4ccc(C#N)cc4c3n2C2CCCCC2(F)F)no1 (stereo not shown) [Example 151, formate salt]", 7.59),
    ("Cc1cc(Cc2nc3cnc4ccc(C#N)cc4c3n2C2CCN(C)C2)no1 (stereo not shown) [Example 217, formate salt]", 7.95),
    ("Cc1cc(Cc2nc3cnc4ccc(C#N)cc4c3n2C2CCCC2(F)F)no1 (single isomer, unassigned; ent-2)", 7.53),
]

Entry under review: `Cc1cc(Cc2nc3cnc4ccc(F)cc4c3n2[C@@H]2CCO[C@H](C)C2)no1` . Reported pIC50?
7.84

====

- TARGET_OF_ASSAY: GST-tagged truncated LRRK2 (Homo sapiens, UniProt Q5S007)
- Construct: GST-tagged truncated LRRK2 from Invitrogen (Cat # PV4874); GST; purchased Invitrogen PV4874
- Sequence (Q5S007 970-2527 limits assumed): as the sequence (Q5S007 970-2527 G2019S limits assumed) above, with S1050G counted along it
- ASSAY_DETAILS: LRRK2 Assay, Format 1 (Lantha Screen), WT
- Assay type: biochemical
- EXPERIMENTAL_CONTEXT: Format 1, wild-type LRRK2; geometric mean of 2-4 determinations unless footnoted (a: ≥5 determinations; b: single determination; c: determined on trifluoroacetate salt)
Counter-ions that a name gives are not always drawn.
Please assign Condition not met whenever IC50 is at or above 100 nM, and Condition met whenever it is below.

# MOLECULE, CATEGORY
measured = [
    ("Cc1nc2cnc3ccc(C#N)cc3c2n1[C@H]1CCO[C@@H](C)C1 (racemic)", "Condition met"),
    ("FC1(F)CCC(n2c(Cc3ccon3)nc3cnc4ccccc4c32)CC1", "Condition not met"),
    ("Cc1nn2cc(Cc3nc4cnc5ccccc5c4n3C3CCOCC3)nc2s1", "Condition met"),
    ("F[C@H]1CC[C@@H](n2c(Cc3nc4ccccc4o3)nc3cnc4ccccc4c32)C1", "Condition not met"),
    ("Fc1ccc2ncc3nc(Cn4cc(C(F)(F)F)nn4)n(C4CCOCC4)c3c2c1 [Example 74, trifluoroacetate salt]", "Condition not met"),
    ("CC1(C)CC(n2c(Cc3cscn3)nc3cnc4ccccc4c32)CCO1 (stereo not drawn) [Example 72, trifluoroacetate salt]", "Condition not met"),
    ("COc1ccc2ncc3nc(Cc4ccon4)n([C@@H]4CCO[C@H](C)C4)c3c2c1", "Condition met"),
    ("Fc1ccc2ncc3nc(Cn4cc(C(F)(F)F)cn4)n(C4CCOCC4)c3c2c1 [Example 78, trifluoroacetate salt]", "Condition not met"),
]

Confirm or reject: IC50 of C[C@H]1C[C@@H](n2c(Cc3cn4ncsc4n3)nc3cnc4ccc(F)cc4c32)CCO1 (racemic) lies strictly below 100 nM
Condition met

How about `C[C@@H]1C[C@H](n2c(Cc3ccon3)nc3cnc4ccc(C#N)cc4c32)CCO1` ?
Condition met

How about `c1ccc2oc(Cc3nc4cnc5ccccc5c4n3C3CCOCC3)nc2c1` ?
Condition not met

How about `FC(F)(F)c1cnn(Cc2nc3cnc4ccccc4c3n2C2CCOCC2)c1` ?
Condition not met

====

- TARGET_OF_ASSAY: GST-tagged truncated LRRK2 (Homo sapiens)
- Construct: GST-tagged truncated LRRK2 from Invitrogen (Cat # PV4874); GST; purchased Invitrogen PV4874
- ASSAY_DETAILS: LRRK2 Assay, Format 2 (Lantha Screen), WT
- Assay type: biochemical
- EXPERIMENTAL_CONTEXT: geometric mean of 2-4 determinations unless otherwise indicated (a: >=5; b: single determination)
Counter-ions that a name gives are not always drawn.
Grouping rule (IC50): bin 0: < 7 nM; bin 1: ≥ 7 nM and < 10 nM; bin 2: ≥ 10 nM

# MOLECULE, CATEGORY
data = [
    ("N#Cc1ccc2ncc3nc(Cn4cc(C(F)(F)F)cn4)n([C@@H]4CC[C@H](F)C4)c3c2c1 (single isomer, unassigned; ent-1)", "bin 1"),
    ("Cc1cc(Cc2nc3cnc4ccc(C#N)cc4c3n2C2CCCC(F)(F)C2)no1 (stereo not shown) [Example 244, formate salt]", "bin 2"),
    ("Cc1cnn(Cc2nc3cnc4ccc(Cl)cc4c3n2[C@@H]2CCO[C@H](C)C2)c1", "bin 1"),
]

Continue with the next molecule.
Which bin should I file `Cc1cc(Cc2nc3cnc4ccc(C#N)cc4c3n2CC(F)F)no1` under?
bin 2

====

- TARGET_OF_ASSAY: GST-tagged truncated LRRK2 (Homo sapiens)
- Construct: GST-tagged truncated LRRK2 from Invitrogen (Cat # PV4874); GST; purchased Invitrogen PV4874
- ASSAY_DETAILS: LRRK2 Assay, Format 1 (Lantha Screen), WT
- Assay type: biochemical
- EXPERIMENTAL_CONTEXT: 100 nM LRRKtide, 50 μM ATP, 1.7 μg/mL LRRK2 enzyme, two hours at room temperature
OUTCOME_MEASURE: pIC50
Please keep in mind that pIC50 is minus log10 of the molar concentration; only the number is needed.

# COMPOUND, pIC50
records = [
    ("C[C@@H]1C[C@@H](n2c(Cc3ccon3)nc3cnc4ccc(C#N)cc4c32)CCO1 [enantiomer of Example 24]", 6.57),
    ("Cc1cc(Cc2nc3cnc4ccc(Cl)cc4c3n2C2CCOC(CC#N)C2)no1 (single isomer, unassigned; ent-2) [enantiomer of Example 134]", 6.45),
    ("C[C@H]1C[C@@H](n2c(Cc3ccon3)nc3cnc4ccc(C#N)cc4c32)CCO1 [enantiomer of Example 22]", 6.27),
    ("COc1ccc2ncc3nc(Cn4cc(C)nn4)n([C@H]4CCO[C@@H](C)C4)c3c2c1 [enantiomer of Example 88]", 5.98),
    ("COc1ccc2ncc3nc(Cc4noc(C)n4)n([C@H]4CCO[C@@H](C)C4)c3c2c1 [enantiomer of Example 87]", 5.54),
    ("Cc1nc(Cc2nc3cnc4ccc(Cl)cc4c3n2C2CCOC(CC#N)C2)no1 (single isomer, unassigned; ent-2) [enantiomer of Example 135]", 5.84),
    ("CC[C@H]1C[C@@H](n2c(Cc3ccon3)nc3cnc4ccc(C#N)cc4c32)CCO1 [enantiomer of Example 67]", 6.16),
]

Shifting focus to the compound that follows.
Entry under review: COc1ccc2ncc3nc(Cc4ccon4)n([C@H]4CCO[C@@H](C)C4)c3c2c1 [enantiomer of Example 62] . Reported pIC50?
5.77

====

// reported IC50 for each item listed
- TARGET_OF_ASSAY: mutant G2019S LRRK2 (Homo sapiens, UniProt Q5S007, G2019S)
- ASSAY_DETAILS: LRRK2 Assay, Format 2 (Lantha Screen), G2019S mutant
- Format: biochemical
- Set-up: purchased Invitrogen PV4881
- EXPERIMENTAL_CONTEXT: geometric mean of 2-4 determinations unless otherwise indicated (a: >=5; b: single determination); read-out: LRRK2, Format 2 G2019S IC50
Report as a plain number; the unit nM is understood.

Please review the following examples before continuing.
# COMPOUND, RECORDED_NUMBER
measured = [
    ("Cc1cc(Cc2nc3cnc4ccc(C#N)cc4c3n2[C@@H]2CCC[C@@H]2F)no1 (single isomer, unassigned; ent-2) [Example 147]", 22.6),
    ("Cc1cnn(Cc2nc3cnc4ccc(C#N)cc4c3n2[C@@H]2CCO[C@H](C)C2)c1", 7.16),
    ("Cc1cnc(Cc2nc3cnc4ccc(C#N)cc4c3n2[C@@H]2CCO[C@H](C)C2)s1", 6.09),
]

Shifting focus to the compound that follows.
Entry under review: Cc1cn(Cc2nc3cnc4ccc(Cl)cc4c3n2C2CCC2(F)F)nn1 (stereo not shown) . Reported IC50?
33.3
